All values here come from patent US20210380703A1.

- Test system: T1, Human ACVR2A (human, UniProt P27037 20-135, limits assumed); also: test concentration or dose not given here
- T1 construct: also called activin receptor, type II A
- T1 sequence (P27037 20-135 limits assumed): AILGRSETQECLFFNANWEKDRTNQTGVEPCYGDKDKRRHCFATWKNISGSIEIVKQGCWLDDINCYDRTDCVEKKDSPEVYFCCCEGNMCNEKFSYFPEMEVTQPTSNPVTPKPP
- Protocol text: ELISA
Some binders, each annotated with its measured optical density.
Recorded metric: optical density (OD)

1) 370_C06 (antibody, V domains shown, VH/VL only) VH: EVQLLESGGGLVQPGGSLRLSCAASGFTFSSYSMNWVRQAPGKGLEWVANINYNGGYKSYADSVKGRFTISRDNSKNTLYLQMNSLRAEDTAVYYCARGATWHDTHLDYWGQGTLVTVSS VL: DIQMTQSPSSLSASVGDRVTITCRASQSILTYVNWYQQKPGKAPKLLIYAASSLQSGVPSRFSGSGSGTDFTLTISSLQPEDFATYYCQQSYSTPLTFGGGTKVEIK : 3.14
2) 368_G03 (antibody, V domains shown, VH/VL only) VH: EVQLLESGGGLVQPGGSLRLSCAASGFTFSSYSMNWVRQAPGKGLEWVSGINYNSGYTSYADSVKGRFTISRDNSKNTLYLQMNSLRAEDTAVYYCARGATWHDTALDYWGQGTLVTVSS VL: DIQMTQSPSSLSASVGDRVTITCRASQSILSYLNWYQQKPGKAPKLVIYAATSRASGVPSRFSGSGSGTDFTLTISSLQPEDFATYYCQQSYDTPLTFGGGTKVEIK : 2.73
3) 365_G11 (antibody, V domains shown, VH/VL only) VH: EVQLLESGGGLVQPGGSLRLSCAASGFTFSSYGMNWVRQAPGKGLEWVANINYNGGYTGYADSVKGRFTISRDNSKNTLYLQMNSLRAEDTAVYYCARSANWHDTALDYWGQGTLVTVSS VL: DIQMTQSPSSLSASVGDRVTITCRASQSIITYVNWYQQKPGKAPKLLIYAVTSRHSGVPSRFSGSGSGTDFTLTISSLQPEDFATYYCQQSYNSPLTFGGGTKVEIK : 1.75
4) 370_E04 (antibody, V domains shown, VH/VL only) VH: EVQLLESGGGLVQPGGSLRLSCAASGFTFSSYSMNWVRQAPGKGLEWVANINYNGGYKGYADSVKGRFTISRDNSKNTLYLQMNSLRAEDTAVYYCARGATWHDTHLDYWGQGTLVTVSS VL: DIQMTQSPSSLSASVGDRVTITCRASQSILTYLNWYQQKPGKAPKLLIYAVTSLHSGVPSRFSGSGSGTDFTLTISSLQPEDFATYYCQQSYETPLTFGGGTKVEIK : 2.57
5) 367_D09 (antibody, V domains shown, VH/VL only) VH: EVQLLESGGGLVQPGGSLRLSCAASGFTFDSYGMNWVRQAPGKGLEWVASINYNGGYKSYADSVKGRFTISRDNSKNTLYLQMNSLRAEDTAVYYCARGATWHDTHLDYWGQGTLVTVSS VL: DIQMTQSPSSLSASVGDRVTITCRASQSILTYLNWYQQKPGKAPKLLIYAATSLASGVPSRFSGSGSGTDFTLTISSLQPEDFATYYCQQSYDNPLTFGGGTKVEIK : 2.15
6) 376_A02 (antibody, V domains shown, VH/VL only) VH: EVQLLESGGGLVQPGGSLRLSCAASGFTFSSYSMNWVRQAPGKGLEWVAGINYNGGYKSYADSVKGRFTISRDNSKNTLYLQMNSLRAEDTAVYYCARGATWHDTHLDYWGQGTLVTVSS VL: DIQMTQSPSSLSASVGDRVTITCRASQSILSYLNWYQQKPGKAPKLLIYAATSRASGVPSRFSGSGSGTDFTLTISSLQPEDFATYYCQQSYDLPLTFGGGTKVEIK : 3.72
7) 365_E07 (antibody, V domains shown, VH/VL only) VH: EVQLLESGGGLVQPGGSLRLSCAASGFTFDSYGMHWVRQAPGKGLEWVSGINYNSGYTSYADSVKGRFTISRDNSKNTLYLQMNSLRAEDTAVYYCAKSANWHDTHLDYWGQGTLVTVSS VL: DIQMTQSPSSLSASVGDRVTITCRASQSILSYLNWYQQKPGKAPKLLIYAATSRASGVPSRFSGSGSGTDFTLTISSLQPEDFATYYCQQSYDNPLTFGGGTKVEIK : 2.38
8) 374_C10 (antibody, V domains shown, VH/VL only) VH: EVQLLESGGGLVQPGGSLRLSCAASGFTFSSYSMNWVRQAPGKGLEWVSSINYNGGYKGYADSVKGRFTISRDNSKNTLYLQMNSLRAEDTAVYYCARGATWHDTHLDYWGQGTLVTVSS VL: DIQMTQSPSSLSASVGDRVTITCRASQSIVTYLNWYQQKPGKAPKLLIYAATSLASGVPSRFSGSGSGTDFTLTISSLQPEDFATYYCQQSYNTPLTFGGGTKVEIK : 3.57
9) 369_C12 (antibody, V domains shown, VH/VL only) VH: EVQLLESGGGLVQPGGSLRLSCAASGFTFSSYGMNWVRQAPGKGLEWVANINYNGGYKGYADSVKGRFTISRDNSKNTLYLQMNSLRAEDTAVYYCARGATWHDTHLDYWGQGTLVTVSS VL: DIQMTQSPSSLSASVGDRVTITCRASQSILTYLNWYQQKPGKAPKLLIYAATSRHSGVPSRFSGSGSGTDFTLTISSLQPEDFATYYCQQSYDTPLTFGGGTKVEIK : 3.43
10) 365_B11 (antibody, V domains shown, VH/VL only) VH: EVQLLESGGGLVQPGGSLRLSCAASGFTFSSYGMHWVRQAPGKGLEWVAGINYNGGYTSYADSVKGRFTISRDNSKNTLYLQMNSLRAEDTAVYYCARSANWHDTALDYWGQGTLVTVSS VL: DIQMTQSPSSLSASVGDRVTITCRASQSIISYLNWYQQKPGKAPKLVIYATTSRHSGVPSRFSGSGSGTDFTLTISSLQPEDFATYYCQQSYDSPLTFGGGTKVEIK : 2.84
